Test system: C. neoformans
Type: cell-based, Cryptococcus neoformans
Conditions: 72 h
Where a SMILES comes first, the peptide text is derived from it. [ ]: non-standard residue; d: D form. NCyclohexylmethylGly = O=C(O)CNCC1CCCCC1; N(tridecyl)Gly = CCCCCCCCCCCCCNCC(=O)O; Gly(N-2-aminoethyl) = NCCNCC(=O)O; NPhGly = O=C(O)CNc1ccccc1; NHexGly = CCCCCCNCC(=O)O; Nphe = O=C(O)CNCc1ccccc1; Nlys = NCCCCNCC(=O)O
Catalogue of C. neoformans MIC values

Solved entries (count: 4):
[[record]]
compound = "CCCCCCCCCCCCCNCC(=O)N(CCCCCC)CC(=O)N(CCCCN)CC(=O)N(CCN)CC(=O)N(CCCCCC)CC(N)=O [Compound 10] (H-[N(tridecyl)Gly][NHexGly][Nlys][Gly(N-2-aminoethyl)][NHexGly]-NH2)"
outcome_measure = "C. neoformans MIC"
experimental_value = "1.56 to 3.13 µg/mL"

[[record]]
compound = "CCCCCCCCCCCCCNCC(=O)N(CC(=O)N(CCCCN)CC(=O)N(CCN)CC(=O)N(CC(N)=O)CC1CCCCC1)CC1CCCCC1 [Compound 12] (H-[N(tridecyl)Gly][NCyclohexylmethylGly][Nlys][Gly(N-2-aminoethyl)][NCyclohexylmethylGly]-NH2)"
outcome_measure = "C. neoformans MIC"
experimental_value = "1.56 to 3.13 µg/mL"

[[record]]
compound = "CCCCCCCCCCCCCNCC(=O)N(CC(=O)N(CCCCN)CC(=O)N(CCN)CC(=O)N(CC(N)=O)Cc1ccccc1)Cc1ccccc1 [Compound 15] (H-[N(tridecyl)Gly][Nphe][Nlys][Gly(N-2-aminoethyl)][Nphe]-NH2)"
outcome_measure = "C. neoformans MIC"
experimental_value = "1.56 to 3.13 µg/mL"

[[record]]
compound = "CCCCCCCCCCCCCNCC(=O)N(CC(=O)N(CCCCN)CC(=O)N(CCN)CC(=O)N(CC(N)=O)CC1CCCO1)CC1CCCO1 (centres unmarked) [Compound 13]"
outcome_measure = "C. neoformans MIC"
experimental_value = "12.5 to 25 µg/mL"


Now for the compound whose C. neoformans MIC we want.
So what does the record say about C. neoformans MIC for CCCCCCCCCCCCCNCC(=O)N(CC(=O)N(CCCCN)CC(=O)N(CCN)CC(=O)N(CC(N)=O)c1ccccc1)c1ccccc1 [Compound 14] (H-[N(tridecyl)Gly][NPhGly][Nlys][Gly(N-2-aminoethyl)][NPhGly]-NH2) ?
1.56 to 3.13 µg/mL
